Source listed as ChEMBL document CHEMBL5346977.

- RUN_DESCRIPTION: Tmax in Sprague-Dawley rat at 20 mg/kg, po measured after 48 hrs by HPLC-MS/MS analysis
- Assay type: ADME, organism-based
- TEST_CONDITIONS: in vivo
ENDPOINT_LABEL: Tmax (h)
Kindly answer with a numeric value in h, unit omitted.

The molecule listed as Cc1c(COc2cc(OCc3cccc(C#N)c3)c(CN3CCCCC3C(=O)NCCNC(=O)CCCC[C@@H]3SC[C@@H]4NC(=O)N[C@@H]43)cc2Cl)cccc1-c1ccccc1 (stereo partly specified) has a reported Tmax of 3.3

###

- RUN_DESCRIPTION: MRT (0 to infinity) in Sprague-Dawley rat at 1 mg/kg, iv administered as single dose and measured after 48 hrs by HPLC-MS/MS analysis
- Format: ADME, organism-based
- TEST_CONDITIONS: in vivo
ENDPOINT_LABEL: MRT inf (h)
Kindly answer with a numeric value in h, unit omitted.

{"columns": ["COMPOUND", "ENDPOINT_LABEL", "MEAS_VALUE"],
 "data": [
  ["Cc1c(COc2cc(OCc3cccc(C#N)c3)c(CN3CCCCC3C(=O)NCCNC(=O)CCCC[C@@H]3SC[C@@H]4NC(=O)N[C@@H]43)cc2Cl)cccc1-c1ccccc1 (some centres not stated)", "MRT inf", 19.9]
]}

The compound listed as Cc1c(COc2cc(OCc3cccc(C#N)c3)c(CN3CCCCC3C(=O)NCCN)cc2Cl)cccc1-c1ccccc1 (configuration not stated) has a reported MRT inf of 2.3

###

- RUN_DESCRIPTION: Clearance in Sprague-Dawley rat at 1 mg/kg, iv administered as single dose and measured after 48 hrs by HPLC-MS/MS analysis
- Format: ADME, organism-based
- TEST_CONDITIONS: in vivo
ENDPOINT_LABEL: clearance
Could you kindly put the unit after your number?

{"columns": ["MOLECULE", "clearance"],
 "data": [
  ["Cc1c(COc2cc(OCc3cccc(C#N)c3)c(CN3CCCCC3C(=O)NCCNC(=O)CCCC[C@@H]3SC[C@@H]4NC(=O)N[C@@H]43)cc2Cl)cccc1-c1ccccc1 (some centres not stated)", "21.7 mL/min/kg"]
]}

From here, focus on the item given below.
The molecule listed as Cc1c(COc2cc(OCc3cccc(C#N)c3)c(CN3CCCCC3C(=O)NCCN)cc2Cl)cccc1-c1ccccc1 (configuration not stated) has a reported clearance of 8.33 mL/min/kg

###

- RUN_DESCRIPTION: Drug concentration in liver of C57BL/6 mouse implanted with mouse B16-F10 cells at 50 mg/kg, ip measured after 1 hrs by UPLC-MS/MS analysis
- Assay type: ADME, organism-based
- TEST_CONDITIONS: read-out: Ct
ENDPOINT_LABEL: concentration at 1 h
Could you kindly put the unit after your number?

The compound listed as Cc1c(COc2cc(OCc3cccc(C#N)c3)c(CN3CCCCC3C(=O)NCCNC(=O)CCCC[C@@H]3SC[C@@H]4NC(=O)N[C@@H]43)cc2Cl)cccc1-c1ccccc1 (stereo partly specified) has a reported concentration at 1 h of 1980 ng/mL

###

- RUN_DESCRIPTION: Drug concentration in lung of C57BL/6 mouse implanted with mouse B16-F10 cells at 50 mg/kg, ip measured after 4 hrs by UPLC-MS/MS analysis
- Assay type: ADME, organism-based
- TEST_CONDITIONS: read-out: Ct
ENDPOINT_LABEL: concentration at 4 h (ng/mL)
Kindly answer with a numeric value in ng/mL, unit omitted.

The compound listed as Cc1c(COc2cc(OCc3cccc(C#N)c3)c(CN3CCCCC3C(=O)NCCNC(=O)CCCC[C@@H]3SC[C@@H]4NC(=O)N[C@@H]43)cc2Cl)cccc1-c1ccccc1 (stereo partly specified) has a reported concentration at 4 h of 143
